- System: Burkholderia cenocepacia
- PROTOCOL DETAILS: MIC and MBC determination (CLSI, alamar blue), CF isolates
- CONDITION DESCRIPTION: Burkholderia
Known MIC 90 of a selection of molecules
READOUT KIND: MIC 90 (mg/L)

• C[C@H]1COc2c(N3CCN(C)CC3)c(F)cc3c(=O)c(C(=O)O)cn1c23 [Levofloxacin] = 8
• CC(C)(O/N=C(\C(=O)N[C@@H]1C(=O)N2C(C(=O)[O-])=C(C[n+]3ccccc3)CS[C@H]12)c1csc(N)n1)C(=O)O [Ceftazidime] = 16
• CO[C@@]1(NC(=O)Cc2cccs2)C(=O)N2C(C(=O)O)=C(COC(N)=O)CS[C@@H]21 [Cefoxitin] = 256

* * *

- Test system: H. influenzae clinical isolates
- PROTOCOL DETAILS: MIC and MBC susceptibility assays (CLSI)
- Format: cell-based, Haemophilus influenzae
- CONDITION DESCRIPTION: Haemophilus influenzae; all H. influenzae strains of Table 6; control antibiotics
READOUT KIND: MIC 50 (µg/mL)

• CN(C)[C@@H]1C(O)=C(C(N)=O)C(=O)[C@@]2(O)C(O)=C3C(=O)c4c(O)cccc4[C@@](C)(O)[C@H]3C[C@@H]12 = 2
• CC[C@H]1OC(=O)[C@H](C)[C@@H](O[C@H]2C[C@@](C)(OC)[C@@H](O)[C@H](C)O2)[C@H](C)[C@@H](O[C@@H]2O[C@H](C)C[C@H](N(C)C)[C@H]2O)[C@](C)(O)C[C@@H](C)CN(C)[C@H](C)[C@@H](O)[C@]1(C)O = 2
• CO/N=C(\C(=O)N[C@@H]1C(=O)N2C(C(=O)[O-])=C(C[N+]3(C)CCCC3)CS[C@H]12)c1csc(N)n1 [Cefepime] = 0.125
• CCC[C@@H]1C[C@@H](C(=O)N[C@@H]([C@H]2O[C@H](SC)[C@H](O)[C@@H](O)[C@H]2O)[C@H](C)Cl)N(C)C1 = 16

* * *

Known MIC50 (15) of a selection of molecules
- System: methicillin-resistant Staphylococcus aureus (MRSA) clinical isolates
- PROTOCOL DETAILS: MIC and MBC susceptibility assays (CLSI)
- Format: cell-based
- CONDITION DESCRIPTION: MRSA clinical isolates; value at rank 15 of 29
READOUT KIND: MIC50 (15) (mg/L)

* CN[C@H](CC(C)C)C(=O)N[C@H]1C(=O)N[C@@H](CC(N)=O)C(=O)N[C@H]2C(=O)N[C@H]3C(=O)N[C@H](C(=O)N[C@H](C(=O)O)c4cc(O)cc(O)c4-c4cc3ccc4O)[C@H](O)c3ccc(c(Cl)c3)Oc3cc2cc(c3O[C@@H]2O[C@H](CO)[C@@H](O)[C@H](O)[C@H]2O[C@H]2C[C@](C)(N)[C@H](O)[C@H](C)O2)Oc2ccc(cc2Cl)[C@H]1O [Vanco] | 1
* C[C@H]1c2cccc(O)c2C(O)=C2C(=O)[C@]3(O)C(O)=C(C(N)=O)C(=O)[C@@H](N(C)C)[C@@H]3[C@@H](O)[C@@H]21 [Dox] | 0.25
* CC[C@H]1OC(=O)[C@H](C)[C@@H](O[C@H]2C[C@@](C)(OC)[C@@H](O)[C@H](C)O2)[C@H](C)[C@@H](O[C@@H]2O[C@H](C)C[C@H](N(C)C)[C@H]2O)[C@](C)(O)C[C@@H](C)C(=O)[C@H](C)[C@@H](O)[C@]1(C)O [Eryth] | 64
* C[C@H]1COc2c(N3CCN(C)CC3)c(F)cc3c(=O)c(C(=O)O)cn1c23 [Levo] | 8
